- test-description: Pharmacokinetics of 4-chlorocurcumin in rats
- Assay type: in vivo
- applied-conditions: male, Wistar, blood, iv; rat, i.v. solution, 2.8 mg
value-kind: half-life (h)
Give just the numeric value; h need not be written.

Retrieve half-life measured for O=C(/C=C/c1ccc(Cl)cc1)CC(=O)/C=C/c1ccc(Cl)cc1 [4-chlorocurcumin] and print it.
1.99

* * *

- test-description: Pharmacokinetics of 4-chlorocurcumin in rats
- Assay type: in vivo
- applied-conditions: male, Wistar, blood, iv; rat, i.v. solution, 2.8 mg
value-kind: Tmax (min)
Give just the numeric value; min need not be written.

Retrieve Tmax measured for O=C(/C=C/c1ccc(Cl)cc1)CC(=O)/C=C/c1ccc(Cl)cc1 and print it.
30

* * *

- test-description: Pharmacokinetics of 4-chlorocurcumin in rats
- Type: in vivo
- applied-conditions: male, Wistar, blood, iv; rat, i.v. solution, 2.8 mg
value-kind: Cmax (µg/mL)
Give just the numeric value; µg/mL need not be written.

Retrieve Cmax measured for O=C(/C=C/c1ccc(Cl)cc1)CC(=O)/C=C/c1ccc(Cl)cc1 and print it.
196

* * *

- test-description: Pharmacokinetics of 4-chlorocurcumin in rats
- Assay type: in vivo
- applied-conditions: male, Wistar, blood, iv; rat, i.v. solution, 2.8 mg
value-kind: Vd (L)
Give just the numeric value; L need not be written.

Retrieve Vd measured for O=C(/C=C/c1ccc(Cl)cc1)CC(=O)/C=C/c1ccc(Cl)cc1 [4-chlorocurcumin] and print it.
0.0235

* * *

- test-description: Pharmacokinetics of 4-chlorocurcumin in rats
- Type: in vivo
- applied-conditions: male, Wistar, blood, iv; rat, i.v. solution, 2.8 mg
value-kind: clearance
Write the numeric value and follow it with the unit.

Retrieve clearance measured for O=C(/C=C/c1ccc(Cl)cc1)CC(=O)/C=C/c1ccc(Cl)cc1 [4-chlorocurcumin] and print it.
0.137 mL/min
